The measured values listed here are drawn from paper PMC6446940.

# Tested on: HIV-1 Env pseudovirus ML274.W0M.ENV.B1
# experimentNotes: Single-cycle assay, Paired Infant and Maternal Env clones
# settings: subtype A; NIH # 11540-M (maternal); ML274.W0M.ENV.B1
quantityKind: IC50
In your response, the unit should come after the numeric value.

Exercise: For the compound Cc1nc([C@@H](CN)NC(=O)c2ccc(-c3ccc(F)c(F)c3)[nH]2)sc1CO (single isomer, unassigned) [NBD-14113, reference compound] , what IC50 is on record?
Solution: 4.5 µM

* * *

# System: HIV-1 Env pseudovirus PVO, clone 4
# experimentNotes: Single-cycle assay TZM-bl, Env pseudovirus panel
# settings: subtype B; NIH # 11022; PVO, clone 4; TZM-bl cells
quantityKind: IC50 (µM)
Unit µM implied. Number only.

Exercise: IC50 of Cc1nc([C@@H](CN)NC(=O)c2ccc(-c3ccc(F)c(F)c3)[nH]2)sc1CO (single isomer, unassigned) [NBD-14113, reference compound] on HIV-1 Env pseudovirus PVO, clone 4?
Solution: 4

* * *

# key: entry, value: pIC50
# assaySystem: HIV-1 Reverse Transcriptase (RT) (Human immunodeficiency virus type 1 group M subtype B, UniProt P04585)
# experimentNotes: biochemical
# Assay type: biochemical
pIC50 is defined as minus the log10 of a concentration measured in mol/L.

Exercise: Requested read-out: pIC50. Entry: NCC(NC(=O)c1ccc(-c2ccc3c(c2)OCO3)[nH]1)c1ncc(CO)s1 (centres unmarked) [NBD-14123]
Solution: 4.40

Next up:
Exercise: Suppose we examine the compound Cc1nc(C(CN)NC(=O)c2ccc(-c3ccc4c(c3)OCO4)[nH]2)sc1CO (centres unmarked) [NBD-14110] ; what pIC50 value has been reported?
Solution: 4.51

* * *

# Test system: HIV-1 Env pseudovirus MK184.W0M.ENV.E4
# experimentNotes: Single-cycle assay, Paired Infant and Maternal Env clones
# settings: subtype C/D; NIH # 11536-M (maternal); MK184.W0M.ENV.E4
quantityKind: IC50 (nM)
Your answer is read as nM, so omit the unit and give the number.

Exercise: Look up IC50 for this molecule: Cc1nc([C@@H](CN)NC(=O)c2ccc(-c3ccc(F)c(F)c3)[nH]2)sc1CO (single isomer, unassigned) [NBD-14113, reference compound]
Solution: 2600

* * *

# experimentNotes: Cytotoxicity
# Assay type: cell-based, human
# settings: human, MT-2 cells, MT-2 CC50, MT-2 cells, MTS; mean ± SD, n=3
quantityKind: CC50 at 4 days

Consider the worked cases shown below.
Exercise: So what's the measured CC50 at 4 days for this one? NCC(NC(=O)c1ccc(-c2ccc3nsnc3c2)[nH]1)c1ncc(CO)s1 (stereo not shown)
Solution: 117 µM

Exercise: Would you mind telling me what CC50 at 4 days value was observed for NCC(NC(=O)c1ccc(-c2ccc3c(c2)OCO3)[nH]1)c1nc(CO)cs1 (stereo not shown) ?
Solution: 156 µM

Alright, here's another compound for you.
Exercise: For the compound shown here, Cc1nc(C(CN)NC(=O)c2ccc(-c3ccc4c(c3)OCO4)[nH]2)sc1CO (stereo not shown) , give the reported CC50 at 4 days.
Solution: 193 µM

* * *

# System: HIV-1 Env pseudovirus BK184.W6M.ENV.D2
# experimentNotes: Single-cycle assay, Paired Infant and Maternal Env clones
quantityKind: IC50 (µM)
# output: bare number, implied unit µM

Exercise: I would be grateful if you could share the reported IC50 for Cc1nc(C(CN)NC(=O)c2ccc(-c3ccc4c(c3)OCO4)[nH]2)sc1CO (stereo not drawn) [NBD-14110] .
Solution: 3.7

Exercise: Given NCC(NC(=O)c1ccc(-c2ccc3c(c2)OCO3)[nH]1)c1ncc(CO)s1 (stereo not drawn) [NBD-14123] , state its recorded IC50.
Solution: 3.6

More entries:
Exercise: // query IC50 value for entry CNCC(NC(=O)c1ccc(-c2ccc3c(c2)OCO3)[nH]1)c1nc(CO)cs1 (stereo not drawn) [NBD-14159]
Solution: 4.2

* * *

# Tested on: HIV-1 panel of Paired Infant (B) and Maternal (M) Env Molecular Clones
# experimentNotes: Single-cycle assay, means over Paired Infant and Maternal Env clones
# settings: read-out: IC50 Mean ± SEM: Mother; mean over maternal clones
quantityKind: IC50 (µM)
# number only, unit µM dropped from output

Exercise: Data request, read-out IC50, for Cc1nc([C@@H](CN)NC(=O)c2ccc(-c3ccc(F)c(F)c3)[nH]2)sc1CO (single isomer, unassigned) [NBD-14113, reference compound]
Solution: 4

* * *

Recorded measurements of CC50 at 3 days, one per entry
# experimentNotes: Cytotoxicity
# Assay type: cell-based
# settings: human, TZM-bl cells, TZMb-l CC50, TZM-bl cells, 3 days, MTS; mean ± SD, n=3
Write it as a number; the unit µM goes unstated.

Look over these answered cases.
Exercise: Given the entry Cc1nc(C(CN)NC(=O)c2ccc(-c3ccc4c(c3)OCO4)[nH]2)sc1CO (centres unmarked) , report its measured CC50 at 3 days.
Solution: 146

Exercise: If you can, please state the reported CC50 at 3 days value of CC(C)(N)C(NC(=O)c1ccc(-c2ccc3c(c2)OCO3)[nH]1)c1ncc(CO)s1 (centres unmarked) .
Solution: 64.3

Exercise: What value of CC50 at 3 days has been reported for the following molecule? CC1(C)Oc2ccc(-c3ccc(C(=O)NC(CN)c4ncc(CO)s4)[nH]3)cc2O1 (centres unmarked)
Solution: 64

Exercise: Query: CC50 at 3 days; subject: CNCC(NC(=O)c1ccc(-c2ccc3c(c2)OCO3)[nH]1)c1nc(CO)cs1 (centres unmarked)
Solution: 157

Exercise: Reported CC50 at 3 days, molecule Cc1nc(C(NC(=O)c2ccc(-c3ccc4c(c3)OCO4)[nH]2)C(C)(C)N)sc1CO (centres unmarked) : ____
Solution: 55.2

Exercise: Value lookup for CC50 at 3 days; key = CNCC(NC(=O)c1ccc(-c2ccc3c(c2)OCO3)[nH]1)c1ncc(CO)s1 (centres unmarked)
Solution: 149

Please examine the following record next.
Exercise: Value lookup for CC50 at 3 days; key = NCC(NC(=O)c1ccc(-c2ccc3nsnc3c2)[nH]1)c1ncc(CO)s1 (centres unmarked)
Solution: 79.9

* * *

// reported pIC50 per item
# Tested on: HIV-1 Env pseudovirus REJO4541, clone 67
# experimentNotes: Single-cycle assay TZM-bl, Env pseudovirus panel
Units for pIC50: none; it is -log10 of a concentration expressed in mol/L.

Exercise: Recorded pIC50 of NCC(NC(=O)c1ccc(-c2ccc3c(c2)OCO3)[nH]1)c1ncc(CO)s1 (stereo not drawn) , please.
Solution: 5.47

Exercise: Which pIC50 is reported for this molecule? CNCC(NC(=O)c1ccc(-c2ccc3c(c2)OCO3)[nH]1)c1nc(CO)cs1 (stereo not drawn)
Solution: 5.51

Next up:
Exercise: # get_value(readout='pIC50', item= Cc1nc(C(CN)NC(=O)c2ccc(-c3ccc4c(c3)OCO4)[nH]2)sc1CO (stereo not drawn) )
Solution: 5.47

* * *

# experimentNotes: Cytotoxicity
# Type: cell-based
# settings: human, TZM-bl cells, TZMb-l CC50, TZM-bl cells, 3 days, MTS; mean ± SD, n=3
Here the recorded CC50 at 3 days is given for each entry.
A number alone suffices; assume µM.

Example molecules with recorded CC50 at 3 days:
Exercise: What value of CC50 at 3 days has been reported for the following molecule? NCC(NC(=O)c1ccc(-c2ccc3c(c2)OCO3)[nH]1)c1ncc(CO)s1 (stereo not drawn) [NBD-14123]
Solution: 142

Exercise: Report CC50 at 3 days for NCC(NC(=O)c1ccc(-c2ccc3c(c2)OC(F)(F)O3)[nH]1)c1ncc(CO)s1 (stereo not drawn) [NBD-14144] please.
Solution: 37.9

Turning now to a further molecule:
Exercise: CC50 at 3 days for NCC(NC(=O)c1ccc(-c2ccc3c(c2)OCO3)[nH]1)c1nc(CO)cs1 (stereo not drawn) [NBD-14172] ?
Solution: 92.3

* * *

Reported pIC50 values for a set of compounds
# Test system: HIV-1 Env pseudovirus B1206.W6P.ENV.A1A
# experimentNotes: Single-cycle assay, Paired Infant and Maternal Env clones
pIC50 (log units): -log10 of the concentration in mol/L.

Exercise: What value of measured pIC50 is listed for NCC(NC(=O)c1ccc(-c2ccc3c(c2)OCO3)[nH]1)c1ncc(CO)s1 (stereo not drawn) ?
Solution: 5.31

Exercise: Data request, read-out pIC50, for Cc1nc(C(CN)NC(=O)c2ccc(-c3ccc4c(c3)OCO4)[nH]2)sc1CO (stereo not drawn)
Solution: 5.25

Exercise: // returns reported pIC50 for input CNCC(NC(=O)c1ccc(-c2ccc3c(c2)OCO3)[nH]1)c1nc(CO)cs1 (stereo not drawn)
Solution: 5.40

* * *

# Tested on: HIV-1 Env pseudovirus Q259ENV.W6
# experimentNotes: Single-cycle assay TZM-bl, Env pseudovirus panel
# settings: TZM-bl
Catalogue of pIC50 readings, one per entry.
A value of pIC50 is the negative decimal logarithm of a concentration given in moles per litre.

Some entries whose results are on file:
Exercise: Which measured pIC50 value corresponds to CNCC(NC(=O)c1ccc(-c2ccc3c(c2)OCO3)[nH]1)c1nc(CO)cs1 (stereo not drawn) ?
Solution: 5.89

Exercise: Requested read-out: pIC50. Entry: NCC(NC(=O)c1ccc(-c2ccc3c(c2)OCO3)[nH]1)c1ncc(CO)s1 (stereo not drawn)
Solution: 5.64

Please examine the following record next.
Exercise: Look up pIC50: Cc1nc(C(CN)NC(=O)c2ccc(-c3ccc4c(c3)OCO4)[nH]2)sc1CO (stereo not drawn)
Solution: 5.72
